Could you please report measured self-cleavage for the items listed next?
B1: CPEB3 Ribozyme (parent)
chain: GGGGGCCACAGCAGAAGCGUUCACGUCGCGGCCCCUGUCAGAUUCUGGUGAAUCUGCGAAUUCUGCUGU

variants of: B1; assay: self-cleavage, relative activity (ratio to wild type); higher = more cleavage; co-transcriptional
Kindly provide the number alone.

Prompt line: Please supply the value of reported self-cleavage for the item GGGGGCUACAGCAGAAGCGUUCGCGUCGCGGCCCCUGUCAGAUUCUGGUGAAUCUGCGAAUUCUGCUGU [C7U A23G]
Response line: 0.909

Prompt line: Identify measured self-cleavage corresponding to GGGGGCAACAGCAGAAGCGUUCACGUGGCGGCCCCUGUCAGAUUCUGGUGAAUCUGCGAAUUCUGCUGU [C7A C27G]
Response line: 0.133

Prompt line: Fill in self-cleavage for record GGGGGCCACAGCAGAAGCGUUCACGUCGCGGCCCCUGUCAGAUUCUGGUGAAUCUGCAAAUUCUGAUGU [G58A C66A]
Response line: 0.81

Prompt line: Return value of self-cleavage for input GGGGGCCACAGCAGAAGCGUUCACGUCGUGGCCCCUGUCAGAUUCUGGUGACUCUGCGAAUUCUGCUGU [C29U A52C] , no commentary.
Response line: 0.417

Prompt line: Please indicate self-cleavage recorded for GGGAGCCACAGCAGAAGCGUUCACGUCGCGGCCCCUGUCAGCUUCUGGUGAAUCUGCGAAUUCUGCUGU [G4A A42C]
Response line: 0.473

Prompt line: State, in one line, measured self-cleavage of GGGGGCCACAGCAGAAGCGUUCACGUCGCGGCCCCCGUCAGAUUCUGGUGAAUCUGCGAAUUCUCCUGU [U36C G65C]
Response line: 0.414

Prompt line: Name the recorded self-cleavage of the variant listed here: GGGGGCCACAGCAGAAGCGUUCACGUCGCGGCCCGUGUCAGAUUCUGGUAAAUCUGCGAAUUCUGCUGU [C35G G50A]
Response line: 0.36

Prompt line: Give the reported self-cleavage for this variant. GGGGGCGACAGCAGAAGCGUUCACGUCGCGGCCCCUGUCAGAUUCUGGUUAAUCUGCGAAUUCUGCUGU [C7G G50U]
Response line: 0.465

Prompt line: Specify self-cleavage for GGGGGCGACAGCAGAAGCGUUCACGUCGCGGCCCCUGUCAGAUUCUGGUGAAUCUGCUAAUUCUGCUGU [C7G G58U] and stop.
Response line: 0.528

Prompt line: Report self-cleavage for GGGGGCCACAGCAGGAGCGUUCACGUCGCGGCCCCUGUCAGAUUCUGGGGAAUCUGCGAAUUCUGCUGU [A15G U49G]
Response line: 0.95

Prompt line: Specify reported self-cleavage for the variant shown: GGGGGCCACAGCAGAAGCGUUCACGUCGCGUCCCCUGUCAGAUUCUGGUGAAUCUGCGAAUUCUGCGGU [G31U U67G]
Response line: 0.919
